src = ChEMBL document CHEMBL4402585

Please respond with reported Cmax for every item in the list.
# MEASUREMENT PROTOCOL: Cmax in Sprague-Dawley rat at 3 mg/kg, po by LC-MS/MS analysis
# Type: ADME, organism-based
# Design: dose 3 mg/kg, route oral
# RUN PARAMETERS: in vivo
Write the value in ng/mL as a bare number.

Notebook: `CCS(=O)(=O)Cc1cnc(Oc2ccc(F)cc2F)c(-c2cc(C)c3c(=O)[nH]ccn23)c1` , Cmax read as 159

Notebook: `Cc1cc(-c2cc(CS(C)(=O)=O)cnc2Oc2ccc(F)cc2F)n2cc[nH]c(=O)c12` , Cmax read as 160

====

Please respond with reported half-life for every item in the list.
# MEASUREMENT PROTOCOL: Half life in Sprague-Dawley rat at 3 mg/kg, po by LC-MS/MS analysis
# Type: ADME, organism-based
# RUN PARAMETERS: in vivo
Write the value in h as a bare number.

Notebook: `CCS(=O)(=O)Cc1cnc(Oc2ccc(F)cc2F)c(-c2cc(C)c3c(=O)[nH]ccn23)c1` , half-life read as 3.6

Notebook: `Cc1cc(-c2cc(CS(C)(=O)=O)cnc2Oc2ccc(F)cc2F)n2cc[nH]c(=O)c12` , half-life read as 1.5
